# credit: patent US11166934B2

measuredOn: binding of TSLP to TSLPR (Homo sapiens)
Sequence (Q969D9 29-159): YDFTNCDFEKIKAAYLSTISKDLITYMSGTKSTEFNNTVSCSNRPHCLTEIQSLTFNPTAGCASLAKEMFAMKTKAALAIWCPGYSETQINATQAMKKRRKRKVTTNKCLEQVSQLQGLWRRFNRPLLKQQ
measurementProtocol: ELISA-based TSLP-TSLPR interaction assay (FLAG-TSLP, TSLPR-His, HRP)
experimentalConditions: read-out: TSLP-TSLPR inhibitions (%)
Collected inhibition at 150 µM values appear next to each entry.
propertyMeasured: inhibition at 150 µM

# compound, measuredOn, observedMeasurement
data = [
    ("CN(C)CCOc1nc2ccccc2c2oc(-c3ccccc3)nc12", "binding of TSLP to TSLPR (Homo sapiens)", "5.4%"),
    ("CN(C)CCn1c(=O)c2nc(-c3ccccc3)oc2c2ccccc21", "binding of TSLP to TSLPR (Homo sapiens)", "10.2%"),
    ("O=c1c(O)c(-c2ccc(O)cc2)oc2cc(O)cc(O)c12", "binding of TSLP to TSLPR (Homo sapiens)", "0.6%"),
    ("O=C1/C(=C2\\Nc3ccccc3C2=O)Nc2ccccc21", "binding of TSLP to TSLPR (Homo sapiens)", "3.5%"),
    ("Oc1ccc(-c2[o+]c3cc(O)cc(O)c3cc2O)cc1 [Formula 2, pelargonidin chloride]", "binding of TSLP to TSLPR (Homo sapiens)", "6.3%"),
]
